Target: Relaxin receptor 1 (Homo sapiens) (UniProt Q9HBX9)
Sequence (Q9HBX9 whole entry, looked up): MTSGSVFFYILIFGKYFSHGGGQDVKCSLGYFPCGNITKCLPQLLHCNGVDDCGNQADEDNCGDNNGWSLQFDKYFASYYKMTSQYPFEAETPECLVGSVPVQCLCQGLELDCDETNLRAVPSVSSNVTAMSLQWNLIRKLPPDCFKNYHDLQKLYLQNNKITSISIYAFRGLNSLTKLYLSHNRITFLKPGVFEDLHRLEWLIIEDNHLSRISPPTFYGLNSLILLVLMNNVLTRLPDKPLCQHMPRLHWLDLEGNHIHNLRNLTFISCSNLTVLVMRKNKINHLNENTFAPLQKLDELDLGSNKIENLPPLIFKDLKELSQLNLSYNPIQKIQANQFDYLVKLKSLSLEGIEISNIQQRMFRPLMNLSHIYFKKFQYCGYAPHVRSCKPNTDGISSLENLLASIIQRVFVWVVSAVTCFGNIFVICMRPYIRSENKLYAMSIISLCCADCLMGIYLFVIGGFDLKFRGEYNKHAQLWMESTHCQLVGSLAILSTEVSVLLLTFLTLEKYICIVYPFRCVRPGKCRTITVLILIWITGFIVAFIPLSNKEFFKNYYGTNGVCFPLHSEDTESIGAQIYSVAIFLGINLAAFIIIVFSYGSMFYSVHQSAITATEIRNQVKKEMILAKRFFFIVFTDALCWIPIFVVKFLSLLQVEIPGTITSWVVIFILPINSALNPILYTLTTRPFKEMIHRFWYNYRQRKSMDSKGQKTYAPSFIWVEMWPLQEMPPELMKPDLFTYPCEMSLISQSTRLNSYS
Assay: qHTS Assay for Antagonists of the Relaxin Receptor RXFP1; note: % is set by controls: 0 for no effect and ±100 for the full control effect
Settings: HEK293-RXFP1, relaxin-stimulated cAMP HTRF, 30 min; at 57.5 µM; active compounds read low
The whole screen tested about 350,000 compounds, of which about 2,100 (0.6%) were called active. Inconclusive results (about 1%) are left out. Many of the other results were omitted from the sample, so actives are more common in it than they were.

| molecule | activity change, negative = inhibition [%] |
| --- | --- |
| Cc1cccc2sc(N(CCCN(C)C)C(=O)CCS(=O)(=O)c3ccccc3)nc12 | 10.5 |
| O=C1/C(=C/c2ccc(F)cc2)SC(=S)N1CCCC(=O)N1CCCCC1CCO (stereo not drawn) | -99.6 |
| COc1cccc2sc(N(CCCN(C)C)C(=O)C(c3ccccc3)c3ccccc3)nc12 | -77.3 |
| O=C1C=C(c2ccc(Cl)cc2)C(=O)N1Nc1ccccc1 | -62.4 |
| CCC(CC)C(=O)N1CCN(c2cccc(C)c2C)CC1 | -5.41 |
| Cc1ccc(-c2cc(C(=O)Oc3ccccc3Cl)no2)cc1C | -12.2 |
| Cc1cccc(N2CCN(C(=O)c3cnc(N4CCCC4)nc3C)CC2)c1C | -77.6 |
| O=C(COC(=O)c1ccccn1)NNC(=O)c1ccc(Br)cc1 | -5.4 |
| CC(=O)c1c(C)[nH]c(=S)c(C#N)c1-c1ccc(F)cc1 | 7.17 |
| COc1cc(Cl)c(NC(=O)CC(C)S(=O)(=O)c2cc3c(cc2C)NC(=O)CO3)c(OC)c1 (stereo not drawn) | 0.439 |
| CCOC(=O)c1ccc(NC(=O)c2c(NCc3cccs3)sc3c2CCCC3)cc1 | -24.5 |
| Cc1cccc(N2CCN(C(=O)C3CCN(S(=O)(=O)c4cnc[nH]4)CC3)CC2)c1C | -5.38 |
| CCN1CCN(c2cc(C)c3cc(NC(=O)c4cc(Cl)ccc4OC)ccc3n2)CC1 | -19.5 |
| COCCCNC(=O)c1c(NC(=O)c2cc(=O)c3cc(C)c(C)cc3o2)sc2c1CCCC2 | -4.73 |
| COc1ccc(-c2[nH]ncc2/C=N/NC(=O)c2cc(Br)ccc2O)c(OC)c1 | -30 |
| Cc1ccc(-n2ncc3c(NCCCn4ccnc4)ncnc32)cc1Cl | -9.38 |
| C=CS(=O)c1sc(Cl)c(N2CCOCC2)c1[N+](=O)[O-] (stereo not drawn) | -60.3 |
| CCc1nc2nc(C)cc(Nc3ccc(F)c(Cl)c3)n2n1 | -7.58 |
| CC1(C)CC(N2CCN(C(c3ccccc3)c3ccccc3)CC2)=CC(=[N+]2CCCCC2)C1 | -86.5 |
| C/C=C/C=N/NC(=O)c1ccncc1 | 14.4 |
| CCN(CC)CCN(C(=O)c1ccc2c(c1)CCCC2)c1nc2c(OC)cccc2s1 | -18.9 |
| O=C(COC(=O)c1ccccn1)NNC(=O)c1ccc([N+](=O)[O-])cc1 | -74.5 |
| COc1ccc(OC)c(CNC(=O)C2CCCN(c3nc4ccccc4o3)C2)c1 (stereo not drawn) | 24.2 |
| Cc1[nH]c2ccccc2c1C(=O)COC(=O)c1c(-c2ccccc2)noc1C | -27.9 |
| CCc1ccc(S(=O)(=O)c2nnn3c2nc(N2CCN(CC)CC2)c2sccc23)cc1 | -12.6 |
| O=c1cnnc(Nc2ccccc2F)[nH]1 | -93.6 |
| COC(=O)c1ccc(NC(=O)c2cnn(-c3ccc(Cl)cc3)c2C2CCN(C(=O)OC(C)(C)C)CC2)cc1 | -12.3 |
| CCOC(=O)c1[nH]c(C)c(CCC(=O)N2CCN(c3ccccc3)CC2)c1C | -8.52 |
| Cc1cccc(-n2ncc(C(=O)N3CCN(c4ccc(Cl)cc4)CC3)c2C2CCN(C(=O)OC(C)(C)C)CC2)c1 | -19.9 |
| Cc1nnc(Nc2ccccc2F)s1 | 3.61 |
| CC(C)N=C1CCCC1C(=S)SSC(=S)C1CCCC1=NC(C)C (stereo not drawn) | -72.7 |
| O=C(CSc1nccn1-c1ccc(F)cc1)Nc1cccc2ccccc12 | 1.1 |
| CCOc1ccc(N2CC(c3nc4ccccc4n3CCOc3ccc(OC)cc3)CC2=O)cc1 (stereo not drawn) | -13 |
| CCOC(=O)c1c(C)[nH]c(=S)c(C#N)c1-c1ccccc1 | -118 |
| CCN(C(=O)CN1C(=O)/C(=C/c2ccc(F)cc2)SC1=S)C1CCS(=O)(=O)C1 (stereo not drawn) | 5.31 |
| S=c1[nH]nc(-c2cc(-c3ccsc3)n[nH]2)n1-c1ccccc1 | -4.32 |
| CCOCC(=O)NCc1ccc2c(c1)cc(C)n2C | -74.1 |
| CC1(C)CC(=O)C=C(N2CCOCC2)C1 | -12.6 |
| Cc1cc(-c2n[nH]c(=S)n2/N=C/C(Br)=C/c2ccccc2)n[nH]1 | -5.02 |
| CCOC(=O)c1c(S(=O)(=O)NCC(=O)Nc2ccc(Cl)c(C(F)(F)F)c2)c(C)n(C)c1C | -8.26 |
| O=c1cnnc(Nc2ccccc2)[nH]1 | 9 |
| CCN(CC)c1ccc(NS(=O)(=O)c2cc(-c3cc(C)no3)ccc2C)c(C)c1 | -32.3 |
| COc1ccc(CCNC(=O)c2c3c(nc4ccccc24)C(=O)N(C2CCCCC2)C3)cc1OC | -34 |

---

Molecular target: Relaxin receptor 1 (Homo sapiens)
Assay: qHTS Assay for Antagonists of the Relaxin Receptor RXFP1; note: % is set by controls: 0 for no effect and ±100 for the full control effect
Details: HEK293-RXFP1, relaxin-stimulated cAMP HTRF, 30 min; at 57.5 µM; active compounds read low
About 2,100 (0.6%) of roughly 350,000 compounds were called active. Another 1% or so got no clear call; they are omitted. The entries come from a sample that favours actives as a whole.
Classify: Yes when activity change, negative = inhibition is strictly less than -20%; No when activity change, negative = inhibition is not.

| compound | qualitative label |
| --- | --- |
| CN(C(=O)CSc1nnc(NC(=O)Nc2ccccc2)s1)c1ccccc1 | No |
| CN1CCN(c2oc(-c3ccc(COc4ccc(Cl)cc4)o3)nc2C#N)CC1 | No |
| Cc1cc(C)cc(NC(=O)Cn2nc(N3CCN(c4ccccc4)CC3)ccc2=O)c1 | No |
| CCOc1ccc(N(C(=O)c2snc(C(N)=O)c2N)C(C(=O)NCC2CCCO2)c2c[nH]c3ccccc23)cc1 (stereo not drawn) | No |
| Cc1ccc(C)c(N2CCN(C(=O)Cn3nc(C)c4sc5ccccc5c4c3=O)CC2)c1 | No |
| CCCCOc1ccc(CN2C(=O)C(=O)c3cc(Br)cc(C)c32)cc1OC | Yes |
| O=C(Cn1cc(-c2nnnn2-c2ccc(Cl)cc2)c(=O)c2ccccc21)c1ccccc1 | Yes |
| O=C(CSc1nnc(-c2ccncc2)o1)Nc1cccc(Cl)c1 | No |
| COC(=O)/C=C(/C)N | No |
| COC(=O)CSc1nnc(-c2cccnc2)o1 | No |
| CCCC(=O)O[C@]1(C(=O)COC(=O)CC)CC[C@@H]2[C@@H]3CCC4=CC(=O)CC[C@]4(C)[C@H]3[C@@H](O)C[C@@]21C | No |
| CC(C)c1ccc(Nc2nnc(SCC(=O)c3nnc(-c4ccccc4)o3)s2)cc1 | Yes |
| COc1ccc(N2CCN(C(=O)C3CCCN(C(=O)c4cc5sccc5n4C)C3)CC2)cc1 (stereo not drawn) | Yes |
| O=[N+]([O-])/C=C/c1ccc2c(ccn2Cc2ccccc2)c1 | Yes |
| Cc1ccc(N(C(=O)c2snc(C(N)=O)c2N)C(C(=O)NCC2CCCO2)c2c[nH]c3ccccc23)cc1 (stereo not drawn) | No |
| O=C(CSc1ccc([N+](=O)[O-])cn1)Nc1ccc(N2CCOCC2)cc1 | Yes |
| OCc1ccc(-c2ccccc2)c(-c2ccccc2)c1 | Yes |
| CCc1cccc(NC(=O)CN(C)S(=O)(=O)c2ccc3[nH]c4c(c3c2)CCCC4)c1 | No |
| COc1cccc(Cn2c(SCc3ccc(C(=O)N4CCC(C)CC4)cc3)nc3ccncc32)c1 | No |
| COc1ccc(Cn2ccn(Cc3cccc(OC)c3)c(=O)c2=O)cc1 | No |
| Cc1ccc(CN2CCc3nc(N4CCN(C)CC4)ncc3C2)cc1 | No |
| CCC(=O)N1CCc2cc(Br)cc(S(=O)(=O)CCC(=O)NCCc3ccc(OC)c(OC)c3)c21 | No |
| Cc1ccc(N=C2NC(=O)/C(=C/C=C/c3ccco3)S2)cc1C | Yes |
| Cc1ccc(O)c(NC(=O)c2cc(-c3ccc(F)cc3)no2)c1 | No |
| CC(=O)N/N=C(\C)c1ccc(Br)cc1Br | No |
| OCC(CO)(CO)NCc1ccc(-c2ccccc2)cc1 | No |
| O=C(OCCN1CCOCC1)c1cccnc1Nc1cccc(C(F)(F)F)c1 | Yes |
| Cc1ccc(CN(C(=O)COc2ccc(Cl)cc2C)C2CCS(=O)(=O)C2)o1 (stereo not drawn) | No |
| CCOC(=O)c1c(NC(=O)CSc2nnc(CNc3ccc(C)cc3C)o2)sc(C)c1C | No |
| Cc1ccc(Cl)cc1N1CCN(C(=O)c2cnc3c(-c4ccc(F)cc4)c(C)nn3c2C)CC1 | No |
| COc1cccc(NC(=O)CSc2nnc(-c3cccnc3)o2)c1 | Yes |
| CCCCNC(=O)c1cc(-c2ccc(Cl)c(Cl)c2)on1 | No |
